Consider the following sequences; for each one, report its switch fluorescence ratio.
test system: ATP; assay: switch fluorescence ratio, 500 uM ATP over buffer (Cy3 cluster intensity, sum of 5 cycles each) (fold (ratio)); higher = stronger signal-on switching upon ATP binding; sequences stand for … in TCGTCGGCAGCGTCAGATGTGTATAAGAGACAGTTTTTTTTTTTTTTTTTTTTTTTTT…TC; details: aptamer strand: ATP DNA aptamer (quencher-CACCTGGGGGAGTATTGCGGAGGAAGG + anchor), 100 nM annealed; ATP concentration: 500 uM;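 also: ATP exposure 15 min at 22 °C before imaging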
Give bare numbers.

Solved entries (count: 5):
| Chain sequence | Measured property | Measured value |
| --- | --- | --- |
| TCCTACGGGG | switch fluorescence ratio | 1.14 |
| TTACTTACGA | switch fluorescence ratio | 1.42 |
| ATTGTTTACA | switch fluorescence ratio | 0.969 |
| CAAATAGATG | switch fluorescence ratio | 1 |
| TGATCTGCAG | switch fluorescence ratio | 1.02 |

// each listed sequence needs a value for switch fluorescence ratio
1. ACTCGCGGGT
2. TTTCGGTCAC

Completion:
1. 1.04
2. 0.983

// each listed sequence needs a value for switch fluorescence ratio
1. TGAATTAGAA
2. GCGAGCGGGT
3. TAATGCGATT
4. ATGGTAGGGT
5. TTTAGAATGT

Completion:
[0.968, 1, 1.04, 1.01, 0.994]

Where these numbers come from: the supplement of paper PMC10126150
